Assay: Single ascending dose study in healthy volunteers, plasma PK (Example 2)
Type: in vivo, human
Conditions: human, plasma, oral, 2 mg, fasted; mean
metric: AUC(0-t)

Entry [2H][C@@](C)(NC(=O)COC(F)F)c1cc(F)cc(Cl)c1COc1cccc2c(-c3ncnn3C)cc(C)nc12 [compound of formula (I)] has what AUC(0-t)? 66 ng·h/mL

====

Assay: Single ascending dose study in healthy volunteers, plasma PK (Example 2)
Assay type: in vivo, human
Details: human, plasma, oral, 1 mg, fasted; mean; read-out: Vz/F
metric: Vd/F (L)
Numbers only, in L.

What does the data say about its Vd/F? Entry: `[2H][C@@](C)(NC(=O)COC(F)F)c1cc(F)cc(Cl)c1COc1cccc2c(-c3ncnn3C)cc(C)nc12` 190

====

Assay: Single ascending dose study in healthy volunteers, plasma PK (Example 2)
Type: in vivo, human
Conditions: human, plasma, oral, 22 mg, fasted; median; read-out: tmax
metric: Tmax (min)
Numbers only, in min.

Query (compound): [2H][C@@](C)(NC(=O)COC(F)F)c1cc(F)cc(Cl)c1COc1cccc2c(-c3ncnn3C)cc(C)nc12 [compound of formula (I)] ; field requested: Tmax 45

====

Assay: Single ascending dose study in healthy volunteers, plasma PK (Example 2)
Assay type: in vivo, human
Details: human, plasma, oral, 2 mg, fasted; median; read-out: tmax
metric: Tmax

Data request, read-out Tmax, for `[2H][C@@](C)(NC(=O)COC(F)F)c1cc(F)cc(Cl)c1COc1cccc2c(-c3ncnn3C)cc(C)nc12` 45 min

====

Assay: Single ascending dose study in healthy volunteers, plasma PK (Example 2)
Assay type: in vivo, human
Conditions: human, plasma, oral, 22 mg, fasted; mean
metric: Cmax (ng/mL)
Numbers only, in ng/mL.

So what's the measured Cmax for this one? `[2H][C@@](C)(NC(=O)COC(F)F)c1cc(F)cc(Cl)c1COc1cccc2c(-c3ncnn3C)cc(C)nc12` 213

====

Experiment: Single ascending dose study in healthy volunteers, plasma PK (Example 2)
Type: in vivo, human
Settings: human, plasma, oral, 12 mg, fasted; mean
metric: AUC(0-t) (ng·h/mL)
One number for each entry, in ng·h/mL.

Dear colleague, I am looking for the recorded AUC(0-t) of the following molecule: [2H][C@@](C)(NC(=O)COC(F)F)c1cc(F)cc(Cl)c1COc1cccc2c(-c3ncnn3C)cc(C)nc12 [compound of formula (I)] 369

====

Assay: Single ascending dose study in healthy volunteers, plasma PK (Example 2)
Format: in vivo, human
Conditions: human, plasma, oral, 22 mg, fasted; mean
metric: AUC(0-t)
# number then unit; no other words

For the molecule shown here, [2H][C@@](C)(NC(=O)COC(F)F)c1cc(F)cc(Cl)c1COc1cccc2c(-c3ncnn3C)cc(C)nc12 [compound of formula (I)] , give the reported AUC(0-t). 681 ng·h/mL

====

Experiment: Single ascending dose study in healthy volunteers, plasma PK (Example 2)
Format: in vivo, human
Details: human, plasma, oral, 2 mg, fasted; mean; read-out: t1/2 (converted)
metric: half-life (h)
Numbers only, in h.

Any idea what half-life was measured for `[2H][C@@](C)(NC(=O)COC(F)F)c1cc(F)cc(Cl)c1COc1cccc2c(-c3ncnn3C)cc(C)nc12` ? 4.26

====

Assay: Single ascending dose study in healthy volunteers, plasma PK (Example 2)
Type: in vivo, human
Conditions: human, plasma, oral, 2 mg, fasted; mean; read-out: C12h
metric: concentration at 12 h (ng/mL)
One number for each entry, in ng/mL.

Record request: concentration at 12 h value, item `[2H][C@@](C)(NC(=O)COC(F)F)c1cc(F)cc(Cl)c1COc1cccc2c(-c3ncnn3C)cc(C)nc12` 0.81
